Target: LDHA (Homo sapiens, UniProt P00338)
Assay: Binding to LDHA by SPR
Conditions: residence time on LDHA
reported_metric: SPR τ

Example entries begin here.
1. NS(=O)(=O)c1ccc(Cc2c(-c3cccc(OCc4ccccc4)c3)nn(-c3nc(C(=O)O)cs3)c2CC2CC2)cc1F [12g]	88,496 s
2. NS(=O)(=O)c1ccc(Cc2c(-c3ccc(F)c(OCc4ccc(C(F)(F)F)o4)c3)nn(-c3nc(C(=O)O)cs3)c2CC2CC2)cc1F [12j]	100,000 s

Batch: SPR τ for all items listed.
1. NS(=O)(=O)c1ccc(Cc2c(-c3ccc(F)c(OCc4cccc(F)c4)c3)nn(-c3nc(C(=O)O)cs3)c2CC2CC2)cc1F [12h]
2. NS(=O)(=O)c1ccc(Cc2c(-c3ccc(F)c(OC4CC4)c3)nn(-c3nc(C(=O)O)cs3)c2CC2CC2)cc1F [12e]
3. NS(=O)(=O)c1ccc(Cc2c(-c3ccc(F)c(OCC4CC4(F)F)c3)nn(-c3nc(C(=O)O)cs3)c2CC2CC2)cc1F (centres unmarked) [12b]
4. NS(=O)(=O)c1ccc(Cc2c(-c3cccc(N4CCOCC4)c3)nn(-c3nc(C(=O)O)cs3)c2CC2CC2)cc1F [13a]
5. Cc1ccc(Oc2cc(-c3nn(-c4nc(C(=O)O)cs4)c(CC4CC4)c3Cc3ccc(S(N)(=O)=O)c(F)c3)ccc2F)cc1 [12p]
6. NS(=O)(=O)c1ccc(Cc2c(-c3cccc(Nc4ccccc4)c3)nn(-c3nc(C(=O)O)cs3)c2CC2CC2)cc1 [13h]

Response given:
1. 13,568 s
2. 19,230 s
3. 21,052 s
4. 286 s
5. 9,708 s
6. 59 s
